Assignment: determine reported IC50 for the given compounds.
Tested on: KRAS patient-derived spheroids with HUVEC/MSC, viability
Assay: Anticancer human tumor 519858-162-T-J1-PDC patient-derived colon adenocarcinoma cell line growth inhibition [KRAS2]
Settings: curve of first compound; second compound 0.316 µM

-- ask Please give the measured IC50 for this compound: CC(=O)Nc1cccc(-n2c(=O)n(C3CC3)c(=O)c3c(Nc4ccc(I)cc4F)n(C)c(=O)c(C)c32)c1 + COc1cc2nc(C)nc(NC(C)c3cc(N)cc(C(F)(F)F)c3)c2cc1OC1CCOC1
-- reply 0.00201 µM

-- ask Follow-up item: COc1cc(Nc2ncc3c(n2)-c2ccc(Cl)cc2C(c2c(F)cccc2OC)=NC3)ccc1C(=O)O + C=CC(=O)N1CCN(c2nc(OCC3CCCN3C)nc3c2CCN(c2cccc4cccc(C)c24)C3)CC1CC#N
-- reply > 10 µM

-- ask Follow-up item: O=C(c1cc(Cc2n[nH]c(=O)c3ccccc23)ccc1F)N1CCN(C(=O)C2CC2)CC1 + CC1OCC2(CCN(c3cnc(Sc4ccnc(N)c4Cl)c(N)n3)CC2)C1N
-- reply > 10 µM

-- ask Follow-up item: COc1cc(Nc2ncc3c(n2)-c2ccc(Cl)cc2C(c2c(F)cccc2OC)=NC3)ccc1C(=O)O + CC1OCC2(CCN(c3cnc(Sc4ccnc(N)c4Cl)c(N)n3)CC2)C1N
-- reply > 10 µM

-- ask Follow-up item: CN(C)C/C=C/C(=O)Nc1cc2c(Nc3ccc(F)c(Cl)c3)ncnc2cc1O[C@H]1CCOC1 + C=CC(=O)N1CCN(c2nc(=O)n(-c3c(C)ccnc3C(C)C)c3nc(-c4c(O)cccc4F)c(F)cc23)C(C)C1
-- reply > 0.1 µM

====

Test system: KRAS patient-derived spheroids with HUVEC/MSC, viability
Experiment: Anticancer human tumor 519858-162-T-J1-PDC cell line growth inhibition [KRAS2];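 note: compound exposure lasted seven days before readout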;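 for viability, T/C: 100% = DMSO vehicle control viability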
Conditions: second compound 0.1 µM; first compound 0.1 µM; stronger effect = lower value
Assignment: determine reported viability, T/C for the given molecules.

-- ask Please give the measured viability, T/C for this molecule: CC1(C)CCC(CN2CCN(c3ccc(C(=O)NS(=O)(=O)c4ccc(NCC5CCOCC5)c([N+](=O)[O-])c4)c(Oc4cnc5[nH]ccc5c4)c3)CC2)=C(c2ccc(Cl)cc2)C1 + CNCc1ccccc1-c1csc(C(C)Nc2nc(C)nc3cc(OC)c(OC)cc23)c1
-- reply 86.8%

-- ask Follow-up item: CC1OCC2(CCN(c3cnc(Sc4ccnc(N)c4Cl)c(N)n3)CC2)C1N (stereo not drawn) + C=CC(=O)N1CCN(c2nc(OCC3CCCN3C)nc3c2CCN(c2cccc4cccc(C)c24)C3)CC1CC#N
-- reply 75.8%

-- ask Follow-up item: CC(C)n1nc(-c2ccc3oc(N)nc3c2)c2c(N)ncnc21 + C=CC(=O)N1CCN(c2nc(=O)n(-c3c(C)ccnc3C(C)C)c3nc(-c4c(O)cccc4F)c(F)cc23)C(C)C1
-- reply 60.1%

====

Assignment: determine reported viability, T/C for the given molecules.
Tested on: KRAS patient-derived spheroids with HUVEC/MSC, viability
Test: Anticancer human tumor 519858-162-T-J1-PDC cell line growth inhibition [KRAS2];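 note: compound exposure lasted seven days before readout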;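 for viability, T/C: 100% = DMSO vehicle control viability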
Details: second compound 10 µM; first compound 3.16 µM; stronger effect = lower value
Provide the reading as a plain figure in %.

-- ask Please give the measured viability, T/C for this molecule: Cn1nccc1Nc1nccc(-c2cc3c(s2)C(C)(C)N(CCN2CCOCC2)C3=O)n1 + CC1OCC2(CCN(c3cnc(Sc4ccnc(N)c4Cl)c(N)n3)CC2)C1N
-- reply 26.5

-- ask Follow-up item: O=C(c1cc(Cc2n[nH]c(=O)c3ccccc23)ccc1F)N1CCN(C(=O)C2CC2)CC1 + COc1cc2nc(C)nc(NC(C)c3cc(N)cc(C(F)(F)F)c3)c2cc1OC1CCOC1
-- reply 67.1

-- ask Follow-up item: CC(C)NCC(C(=O)N1CCN(c2ncnc3c2C(C)CC3O)CC1)c1ccc(Cl)cc1 (stereo not given) + COc1cc2nc(C)nc(NC(C)c3cc(N)cc(C(F)(F)F)c3)c2cc1OC1CCOC1
-- reply 58.8

-- ask Follow-up item: O=C(c1cc(Cc2n[nH]c(=O)c3ccccc23)ccc1F)N1CCN(C(=O)C2CC2)CC1 + C=CC(=O)N1CCN(c2nc(=O)n(-c3c(C)ccnc3C(C)C)c3nc(-c4c(O)cccc4F)c(F)cc23)C(C)C1
-- reply 86.1

-- ask Follow-up item: CC1OCC2(CCN(c3cnc(Sc4ccnc(N)c4Cl)c(N)n3)CC2)C1N (stereo not given) + C=CC(=O)N1CCN(c2nc(=O)n(-c3c(C)ccnc3C(C)C)c3nc(-c4c(O)cccc4F)c(F)cc23)C(C)C1
-- reply 56
